# target.desc: Peroxiredoxin-5, mitochondrial (Homo sapiens)
# Sequence (P30044 whole entry): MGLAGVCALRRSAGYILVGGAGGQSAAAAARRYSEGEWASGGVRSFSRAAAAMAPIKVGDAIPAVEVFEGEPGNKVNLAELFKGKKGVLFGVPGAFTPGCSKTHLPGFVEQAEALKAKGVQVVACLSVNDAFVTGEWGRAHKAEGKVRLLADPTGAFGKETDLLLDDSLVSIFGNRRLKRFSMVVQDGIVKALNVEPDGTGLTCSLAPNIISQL
# assay.overview: Inhibition of recombinant PRDX5 (unknown origin) using H2O2 as substrate preincubated for 0.5 hrs followed by substrate addition by TRX-TrxR-NADPH coupling assay
pIC50: −log10 of the molar value.
measured.parameter: pIC50

Field: pIC50 (Peroxiredoxin-5, mitochondrial (Homo sapiens)). Entry: `COC(=O)C1(NC(=O)N[C@]2(C)CC[C@]3(C)CC[C@]4(C)C5=CC=C6C(=CC(=O)C(O)=C6C)[C@]5(C)CC[C@@]4(C)[C@@H]3C2)CCC1`
< 4.30

* * *

# assay.overview: Antiproliferative activity against HEK293T cells
# Type: toxicity, cell-based, HEK-293T
# experimental.context: human
pIC50: −log10 of the molar value.
measured.parameter: pIC50

So what does the record say about pIC50 for `COC(=O)C1(NC(=O)N[C@]2(C)CC[C@]3(C)CC[C@]4(C)C5=CC=C6C(=CC(=O)C(O)=C6C)[C@]5(C)CC[C@@]4(C)[C@@H]3C2)CCC1` ?
~6.00

* * *

# target.desc: Peroxiredoxin-1 (Homo sapiens, UniProt Q06830)
# Sequence (Q06830 whole entry): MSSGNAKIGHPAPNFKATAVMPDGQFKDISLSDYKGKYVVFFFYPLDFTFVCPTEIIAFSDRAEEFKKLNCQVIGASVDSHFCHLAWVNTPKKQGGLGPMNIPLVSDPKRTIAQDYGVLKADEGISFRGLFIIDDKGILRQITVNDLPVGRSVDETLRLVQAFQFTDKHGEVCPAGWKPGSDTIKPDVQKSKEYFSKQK
# assay.overview: Inhibition of recombinant PRDX1 (unknown origin) using H2O2 as substrate preincubated for 0.5 hrs followed by substrate addition by TRX-TrxR-NADPH coupling assay
This listing pairs molecules with measured pIC50.
Scale: negative log10 of molar concentration, which is what pIC50 denotes.

Below, 2 molecules whose answers are already recorded.
[[record]]
chemical_smiles = "COC(=O)[C@H](CO)NC(=O)N[C@]1(C)CC[C@]2(C)CC[C@]3(C)C4=CC=C5C(=CC(=O)C(O)=C5C)[C@]4(C)CC[C@@]3(C)[C@@H]2C1"
measured_parameter = "pIC50"
reading = 6.33

[[record]]
chemical_smiles = "COC(=O)[C@H](Cc1c[nH]c2ccccc12)NC(=O)N[C@]1(C)CC[C@]2(C)CC[C@]3(C)C4=CC=C5C(=CC(=O)C(O)=C5C)[C@]4(C)CC[C@@]3(C)[C@@H]2C1"
measured_parameter = "pIC50"
reading = 6.47


So what does the record say about pIC50 for `COC(=O)C1(NC(=O)N[C@]2(C)CC[C@]3(C)CC[C@]4(C)C5=CC=C6C(=CC(=O)C(O)=C6C)[C@]5(C)CC[C@@]4(C)[C@@H]3C2)CCC1` ?
6.46

So what does the record say about pIC50 for `CCOC(=O)C1(NC(=O)N[C@]2(C)CC[C@]3(C)CC[C@]4(C)C5=CC=C6C(=CC(=O)C(O)=C6C)[C@]5(C)CC[C@@]4(C)[C@@H]3C2)CC1` ?
6.44

So what does the record say about pIC50 for `COC(=O)[C@@H]1C[C@@H](O)CN1C(=O)N[C@]1(C)CC[C@]2(C)CC[C@]3(C)C4=CC=C5C(=CC(=O)C(O)=C5C)[C@]4(C)CC[C@@]3(C)[C@@H]2C1` ?
6.44

So what does the record say about pIC50 for `COC(=O)[C@@H](NC(=O)N[C@]1(C)CC[C@]2(C)CC[C@]3(C)C4=CC=C5C(=CC(=O)C(O)=C5C)[C@]4(C)CC[C@@]3(C)[C@@H]2C1)[C@@H](C)O` ?
6.31

* * *

# assay.overview: Antiproliferative activity against human LX2 cells
# Assay type: toxicity, cell-based, LX-2
measured.parameter: IC50

So what does the record say about IC50 for `COC(=O)C1(NC(=O)N[C@]2(C)CC[C@]3(C)CC[C@]4(C)C5=CC=C6C(=CC(=O)C(O)=C6C)[C@]5(C)CC[C@@]4(C)[C@@H]3C2)CCC1` ?
~1 µM
